The entries below come with measured MFI.Max values attached.
target: T1, human GPRC5D (G protein-coupled receptor class C group 5 member D), on cells (human, UniProt Q9NZD1 1-345); experiment: FACS on MM.1R multiple myeloma cells
T1 construct: whole, on cells; also called hGPRC5D
T1 sequence (Q9NZD1 whole entry): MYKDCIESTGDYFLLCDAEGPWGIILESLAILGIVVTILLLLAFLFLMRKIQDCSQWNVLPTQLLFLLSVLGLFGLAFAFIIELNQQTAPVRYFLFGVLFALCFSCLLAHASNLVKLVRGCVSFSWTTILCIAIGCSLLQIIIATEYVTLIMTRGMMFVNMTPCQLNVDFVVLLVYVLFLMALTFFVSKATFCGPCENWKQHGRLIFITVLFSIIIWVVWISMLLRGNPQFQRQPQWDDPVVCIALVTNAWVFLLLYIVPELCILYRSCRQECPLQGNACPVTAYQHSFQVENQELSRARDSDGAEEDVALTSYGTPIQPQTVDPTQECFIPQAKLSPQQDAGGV
Give the value, in units of MFI, as a plain number.

Input line: Query (binder): humanized antibody 24F5 (hz) (antibody, V domains shown) VH: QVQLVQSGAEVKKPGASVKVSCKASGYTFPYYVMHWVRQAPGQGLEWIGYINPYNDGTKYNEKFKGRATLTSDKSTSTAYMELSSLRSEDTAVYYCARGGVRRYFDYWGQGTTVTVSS VL: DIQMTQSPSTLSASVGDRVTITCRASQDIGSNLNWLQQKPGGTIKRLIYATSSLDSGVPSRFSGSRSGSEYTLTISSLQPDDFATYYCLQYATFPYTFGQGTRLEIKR ; field requested: MFI.Max
Output line: 177

Values from patent US20260085114A1
